Could you please report measured MIC for the items listed next?
# Test system: S. aureus VISA/HIP5827
# method-notes: MIC, broth microdilution, vancomycin-intermediate S. aureus VISA HIP5827
# Assay type: cell-based, Staphylococcus aureus
# condition-label: Staphylococcus aureus VISA/HIP5827; read-out: MIC
Numbers only, in µM.

CNC(CC(C)C)C(=O)NC1C(=O)NC(CC(N)=O)C(=O)NC2C(=O)NC3C(=O)NC(C(=O)NC(C(=O)NCCNC(=O)C=Cc4ccccc4)c4cc(O)cc(O)c4-c4cc3ccc4O)C(O)c3ccc(c(Cl)c3)Oc3cc2cc(c3OC2OC(CO)C(O)C(O)C2OC2CC(C)(N)C(O)C(C)O2)Oc2ccc(cc2Cl)C1O (centres unmarked) :: 0.78

Entry CN[C@H](CC(C)C)C(=O)N[C@H]1C(=O)N[C@@H](CC(N)=O)C(=O)N[C@H]2C(=O)N[C@H]3C(=O)N[C@H](C(=O)N[C@H](C(=O)NCCNC(=O)/C=C/c4ccc(NS(=O)(=O)c5ccc(C(C)C)cc5)cc4)c4cc(O)cc(O)c4-c4cc3ccc4O)[C@H](O)c3ccc(c(Cl)c3)Oc3cc2cc(c3O[C@@H]2O[C@H](CO)[C@@H](O)[C@H](O)[C@H]2O[C@H]2C[C@](C)(N)[C@H](O)[C@H](C)O2)Oc2ccc(cc2Cl)[C@H]1O ; MIC = 0.78

All figures here come from paper PMC6001238.
